- protocol-summary: qHTS Multiplex Assay to Identify Dual Action Probes in a Cell Model of Huntington: Aggregate Formation (GFP); further: nearly all actives have a fitted effect of over 60% in size
- recorded-conditions: PC12 HttQ103-GFP aggregates, Acumen cytometry, 40 h; series mostly up to 9.22 µM
- Source text: NIH Chemical Genomics Center [NCGC] NIH Molecular Libraries Probe Production centers Network [MLPCN] Assay Submitter (PI): Wei Zheng […] A stable PC12 cell line containing a gene fusion of Exon 1 of the Huntingtin gene linked to GFP under the control of the inducible ecdysone promoter were used as the cell-based model of Huntington Disease for high throughput screening. […] The cell death were quantified with a measurement of ATP content in the cells. […] 6, Detector, Aggregate quantitation by Acumen Explorer […]
Hit rate of the full screen: of about 220,000 compounds, about 2,400 (1.1%) were called active. About 7% were inconclusive and are not listed. The call rests on the fitted dose curve; in most records, active means well fitted inhibition curve with a large enough effect; inconclusive means small, poorly fitted or top-dose-only effect, or effect the other way; inactive means no such curve, though single readings can be large or run the other way. For the sample, actives were picked, then their nearest neighbours and some compounds at random.
Labels: active, inactive

[[record]]
compound = "O=C(N/N=C/c1ccc([N+](=O)[O-])o1)c1cc([N+](=O)[O-])cc([N+](=O)[O-])c1O"
class_name = "inactive"

[[record]]
compound = "c1ccc2sc(SNC3CCCCC3)nc2c1"
class_name = "inactive"

[[record]]
compound = "CCCn1c(C(=O)c2ccccc2OC)nc2ccccc21"
class_name = "inactive"

[[record]]
compound = "COc1ccc(-n2c(-c3ccccc3)nc3ccccc3c2=O)cc1"
class_name = "inactive"

[[record]]
compound = "CCCCCn1c(=O)c(C(=O)NCc2ccccn2)c(O)c2ccccc21"
class_name = "active"

[[record]]
compound = "O=Cc1cn(Cc2ccc(F)cc2Cl)c2ccccc12"
class_name = "active"

[[record]]
compound = "CCCCC(=O)N/N=C/c1c(O)n(-c2ccccc2)c(=O)[nH]c1=O"
class_name = "inactive"

[[record]]
compound = "CC(Cc1ccccc1)NC=O (configuration not stated)"
class_name = "inactive"

[[record]]
compound = "CN1CCN(/N=C/c2c[nH]c3ccccc23)CC1"
class_name = "inactive"

[[record]]
compound = "COC([CH2][Hg])CNC(=O)c1ccccc1OCC(=O)O (configuration not stated)"
class_name = "inactive"

[[record]]
compound = "CC[N+]1(CCOC(=O)C(O)(c2ccccc2)c2ccccc2)CCCCC1"
class_name = "inactive"

[[record]]
compound = "CCCCCn1c(=O)c(C(=O)Nc2c(C)n(C)n(-c3ccccc3)c2=O)c(O)c2ccccc21"
class_name = "inactive"

